system: BaF3; test: Antiproliferative activity against crizotinib resistant mouse BaF3 cells expressing EML4 fused ALK I1171N mutant assessed as reduction in cell viability incubated for 72 hrs by Celltitre-Glo luminescent assay; assay type: functional, cell-based; details: BaF3, 72 h
RECORDED_METRIC: pIC50
Remember the convention: pIC50 equals -log10 of concentration in molar.

Read off the recorded pIC50 for "COc1cc(N2CCC(N3CCN(C)CC3)CC2)ccc1Nc1ncc(Cl)c(Nc2ccccc2P(C)(C)=O)n1" 7.46

* * *

Could you please report measured IC50 for the items listed next?
system: BaF3; assay: Antiproliferative activity against mouse BaF3 cells harbouring CD74-ROS1-S1986F mutant assessed as reduction in cell viability incubated for 72 hrs by Celltitre-Glo luminescent assay; type: functional, cell-based; settings: BaF3, 72 h
# output: number + unit

Read off the recorded IC50 for "COc1cc(N2CCC(N3CCN(C)CC3)CC2)ccc1Nc1ncc(Cl)c(Nc2ccccc2P(C)(C)=O)n1" 0.02 µM

Read off the recorded IC50 for "COc1cc(N2CCC3(CCN(C)CC3)CC2)ccc1Nc1ncc(Cl)c(Nc2ccccc2P(C)(C)=O)n1" 0.022 µM

* * *

assay: AUC (0 to last) in Sprague-Dawley rat at 8 mg/kg, po; assay type: ADME, organism-based; parameters: time 0 - last, dose 8 mg/kg, route po; details: in vivo
RECORDED_METRIC: AUC(0-t)

Read off the recorded AUC(0-t) for "COc1cc(N2CCC3(CCN(C)CC3)CC2)ccc1Nc1ncc(Cl)c(Nc2ccccc2P(C)(C)=O)n1" 4000 ng·h/mL

* * *

tested on: BaF3; assay: Antiproliferative activity against crizotinib resistant mouse BaF3 cells expressing EML4 fused ALK I1171S mutant assessed as reduction in cell viability incubated for 72 hrs by Celltitre-Glo luminescent assay; format: functional, cell-based; settings: BaF3, 72 h
RECORDED_METRIC: IC50
# output: number + unit

Read off the recorded IC50 for COc1cc(N2CCC3(CCN(C)CC3)CC2)ccc1Nc1ncc(Cl)c(Nc2ccccc2P(C)(C)=O)n1 [IRUPLINALKIB] 32 nM

Read off the recorded IC50 for COc1cc(N2CCC(N3CCN(C)CC3)CC2)ccc1Nc1ncc(Cl)c(Nc2ccccc2P(C)(C)=O)n1 [BRIGATINIB] 93 nM

* * *

Could you please report measured IC50 for the items listed next?
system: BaF3; assay: cells; conditions: Mus musculus
Description: Antiproliferative activity against mouse BaF3 cells harbouring ALK wild type assessed as reduction in cell viability by Celltitre-Glo luminescent assay

Read off the recorded IC50 for "CN1CCC2(CC1)CCN(c1ccc(Nc3ncc(Cl)c(Nc4ccccc4P(C)(C)=O)n3)c(OC(F)F)c1)CC2" 0.024 µM

Read off the recorded IC50 for "COc1cc(N2CCC3(CCN(C)CC3)CC2)ccc1Nc1ncc(Cl)c(Nc2ccccc2P(C)(C)=S)n1" 0.005 µM

Read off the recorded IC50 for "COc1cc(N2CCC3(CCN(C)CC3)CC2)ccc1Nc1ncc(Cl)c(Nc2ccc(F)cc2P(C)(C)=O)n1" 0.008 µM

Read off the recorded IC50 for "COc1cc(C2CCC3(CC2)CCN(C)CC3)ccc1Nc1ncc(Cl)c(Nc2ccccc2P(C)(C)=O)n1" 0.011 µM

Read off the recorded IC50 for "COc1cc(N2CCC3(CCN(C)CC3)CC2)c(Cl)cc1Nc1ncc(Cl)c(Nc2ccccc2P(C)(C)=O)n1" 0.01 µM

Read off the recorded IC50 for COc1cc(N2CCC3(CCN(C)CC3)CC2)ccc1Nc1ncc(Cl)c(Nc2ccccc2P(C)(C)=O)n1 [IRUPLINALKIB] 0.013 µM

* * *

experiment: Volume of distribution at steady state in Beagle dog at 1 mg/kg, iv; type: ADME, organism-based, Canis lupus familiaris; conditions: in vivo, read-out: Vdss
RECORDED_METRIC: Vd (L/kg)
Lab book: enter the figure in L/kg, no units written.

Read off the recorded Vd for "COc1cc(N2CCC3(CCN(C)CC3)CC2)ccc1Nc1ncc(Cl)c(Nc2ccccc2P(C)(C)=O)n1" 4.6

* * *

tested on: BaF3; experiment: Antiproliferative activity against crizotinib resistant mouse BaF3 cells expressing EML4 fused ALK F1174C mutant assessed as reduction in cell viability incubated for 72 hrs by Celltitre-Glo luminescent assay; assay type: functional, cell-based; details: BaF3, 72 h
RECORDED_METRIC: IC50 (nM)
Lab book: enter the figure in nM, no units written.

Fetch value of IC50 on BaF3 for "COc1cc(N2CCC(N3CCN(C)CC3)CC2)ccc1Nc1ncc(Cl)c(Nc2ccccc2P(C)(C)=O)n1" . 98

Fetch value of IC50 on BaF3 for "COc1cc(N2CCC3(CCN(C)CC3)CC2)ccc1Nc1ncc(Cl)c(Nc2ccccc2P(C)(C)=O)n1" . 36

* * *

Could you please report measured half-life for the items listed next?
experiment: Half-life in mouse at 1 mg/kg, iv; type: ADME, organism-based; settings: in vivo
Lab book: enter the figure in h, no units written.

Read off the recorded half-life for "COc1cc(N2CCC3(CC2)CNC3)ccc1Nc1ncc(Cl)c(Nc2ccccc2P(C)(C)=O)n1" 1.5

Read off the recorded half-life for "COc1cc(N2CCC3(CCNCC3)CC2)ccc1Nc1ncc(Cl)c(Nc2ccccc2P(C)(C)=O)n1" 3.6

Read off the recorded half-life for "COc1cc(N2CCC3(CNC3)C2)ccc1Nc1ncc(Cl)c(Nc2ccccc2P(C)(C)=O)n1" 1.1

* * *

experiment: Oral bioavailability in mouse at 10 mg/kg; format: ADME, organism-based; conditions: in vivo
RECORDED_METRIC: bioavailability (%)
Lab book: enter the figure in %, no units written.

Read off the recorded bioavailability for "COc1cc(N2CCC3(CCNCC3)CC2)ccc1Nc1ncc(Cl)c(Nc2ccccc2P(C)(C)=O)n1" 18.5

Read off the recorded bioavailability for "COc1cc(N2CCC3(CNC3)C2)ccc1Nc1ncc(Cl)c(Nc2ccccc2P(C)(C)=O)n1" 1.2

Read off the recorded bioavailability for "COc1cc(N2CCC3(CC2)CNC3)ccc1Nc1ncc(Cl)c(Nc2ccccc2P(C)(C)=O)n1" 5.2

* * *

assay: AUC (0 to last) in mouse at 10 mg/kg, po; assay type: ADME, organism-based; parameters: time 0 - last, dose 10 mg/kg, route po; settings: in vivo
Could you please report measured AUC(0-t) for the items listed next?
Lab book: enter the figure in µg·h/mL, no units written.

Read off the recorded AUC(0-t) for "COc1cc(N2CCC3(CC2)CNC3)ccc1Nc1ncc(Cl)c(Nc2ccccc2P(C)(C)=O)n1" 0.219

Read off the recorded AUC(0-t) for "COc1cc(N2CCC3(CNC3)C2)ccc1Nc1ncc(Cl)c(Nc2ccccc2P(C)(C)=O)n1" 0.0277

Read off the recorded AUC(0-t) for "COc1cc(N2CCC3(CCNCC3)CC2)ccc1Nc1ncc(Cl)c(Nc2ccccc2P(C)(C)=O)n1" 1.63

* * *

tested on: BaF3; assay: Antiproliferative activity against crizotinib resistant mouse BaF3 cells expressing EML4 fused ALK I1171T mutant assessed as reduction in cell viability incubated for 72 hrs by Celltitre-Glo luminescent assay; format: functional, cell-based; settings: BaF3, 72 h
RECORDED_METRIC: pIC50
Remember the convention: pIC50 equals -log10 of concentration in molar.

Read off the recorded pIC50 for "COc1cc(N2CCC3(CCN(C)CC3)CC2)ccc1Nc1ncc(Cl)c(Nc2ccccc2P(C)(C)=O)n1" 7.96

Read off the recorded pIC50 for "COc1cc(N2CCC(N3CCN(C)CC3)CC2)ccc1Nc1ncc(Cl)c(Nc2ccccc2P(C)(C)=O)n1" 7.72

* * *

Could you please report measured pIC50 for the items listed next?
test system: BaF3; assay: Antiproliferative activity against mouse BaF3 cells harbouring SLC34A2-ROS1-L2026M mutant assessed as reduction in cell viability incubated for 72 hrs by Celltitre-Glo luminescent assay; type: functional, cell-based; details: BaF3, 72 h
Remember the convention: pIC50 equals -log10 of concentration in molar.

Read off the recorded pIC50 for "COc1cc(N2CCC3(CCN(C)CC3)CC2)ccc1Nc1ncc(Cl)c(Nc2ccccc2P(C)(C)=O)n1" 7.92

Read off the recorded pIC50 for "COc1cc(N2CCC(N3CCN(C)CC3)CC2)ccc1Nc1ncc(Cl)c(Nc2ccccc2P(C)(C)=O)n1" 7.32

* * *

assay: Clearance in Beagle dog at 1 mg/kg, iv; assay type: ADME, organism-based, Canis lupus familiaris; details: in vivo
RECORDED_METRIC: clearance (mL/min/kg)
Lab book: enter the figure in mL/min/kg, no units written.

Read off the recorded clearance for COc1cc(N2CCC3(CCN(C)CC3)CC2)ccc1Nc1ncc(Cl)c(Nc2ccccc2P(C)(C)=O)n1 [IRUPLINALKIB] 8.6

* * *

experiment: Oral bioavailability in Balb/c nude mouse at 5 mg/kg; assay type: ADME, organism-based; details: in vivo
RECORDED_METRIC: bioavailability (%)
Lab book: enter the figure in %, no units written.

Read off the recorded bioavailability for "COc1cc(N2CCC3(CCN(C)CC3)CC2)ccc1Nc1ncc(Cl)c(Nc2ccccc2P(C)(C)=O)n1" 66.2
